target: GABA-A receptor; anion channel; assay: Inhibition of Diazepam-Insensitive faction of GABA-A benzodiazepine receptors; format: protein-complex assay, Rattus norvegicus

smi	IC50
COC(=O)c1ncn2c1CN(C)C(=O)c1ccccc1-2	> 1000 nM

====

target: GABA-A receptor; anion channel (Rattus norvegicus) (UniProt O09028+P15431+P18506+P18508+P19969+P20236+P23574+P23576+P28471+P28473+P30191+P62813+P63079+P63138+Q91ZM7+Q9ES14); assay: GABA shift ratio at Diazepam sensitive fraction of GABA-A benzodiazepine receptor; assay type: protein-complex assay

smi	GABA shift
CCCOC(=O)c1ncn2c1CN(C)C(=O)c1cc(Cl)ccc1-2	128
CN1Cc2c(C(=O)OC(C)(C)C)ncn2-c2ccc(Br)cc2C1=O	1.06
CN1Cc2c(C(=O)OC(C)(C)C)ncn2-c2ccc(N=[N+]=[N-])cc2C1=O	1.76
CN1Cc2c(C(=O)OCCC(C)(C)C)ncn2-c2ccc(Cl)cc2C1=O	201
CN1Cc2c(C(=O)OC(C)(C)C)ncn2-c2ccccc2C1=O	105
COC(=O)c1ncn2c1CN(C)C(=O)c1ccccc1-2	99

====

molecular target: GABA-A receptor; anion channel (Rattus norvegicus) (UniProt O09028+P15431+P18506+P18508+P19969+P20236+P23574+P23576+P28471+P28473+P30191+P62813+P63079+P63138+Q91ZM7+Q9ES14); assay: Selectivity for Diazepam insensitive compared to sensitive GABA-A benzodiazepine receptor fractions; format: protein-complex assay
// Ratio lookup, one value per entry

compound	Ratio
CN1Cc2c(C(=O)OCC(C)(C)C)ncn2-c2ccc(Cl)cc2C1=O	0.67
CN1Cc2c(C(=O)OC(C)(C)C)ncn2-c2ccc(N=C=S)cc2C1=O	0.73
CCOC(=O)c1ncn2c1[C@@H]1CCCN1C(=O)c1ccccc1-2	50
CN1Cc2c(C(=O)OCC3CC3)ncn2-c2ccc(Cl)cc2C1=O	4.1
CCOC(=O)c1ncn2c1C1CCCN1C(=O)c1cc(Cl)ccc1-2 (stereo not given)	0.73
CN1Cc2c(C(=O)OC(C)(C)C)ncn2-c2ccsc2C1=O	13
CN1Cc2c(C(=O)OC(C)(C)C)ncn2-c2ccc([N+](=O)[O-])cc2C1=O	0.77
CCOC(=O)c1ncn2c1CN(C)C(=O)c1ccccc1-2	165
CCCOC(=O)c1ncn2c1CN(C)C(=O)c1sccc1-2	27
CN1Cc2c(C(=O)OC(C)(C)C)ncn2-c2ccc(N=[N+]=[N-])cc2C1=O	0.2

====

Ki by entry:
molecular target: GABA-A receptor; anion channel; test: Binding affinity for Diazepam-Sensitive fraction of GABA-A benzodiazepine receptors; type: protein-complex assay

molecule	Ki, nM
CN1Cc2c(C(=O)OC(C)(C)C)ncn2-c2ccc(Cl)cc2C1=O	4
CCCOC(=O)c1ncn2c1CN(C)C(=O)c1cc(Cl)ccc1-2	24.8
CN1Cc2c(C(=O)OC(C)(C)C)ncn2-c2ccc(N=[N+]=[N-])cc2C1=O	2.1
CCCOC(=O)c1ncn2c1CN(C)C(=O)c1sccc1-2	1.4
CN1Cc2c(C(=O)OC(C)(C)C)ncn2-c2ccc(N=C=S)cc2C1=O	3.7
CN1Cc2c(C(=O)OCCC(C)(C)C)ncn2-c2ccc(Cl)cc2C1=O	184
CC(C)OC(=O)c1ncn2c1CN(C)C(=O)c1cc(Cl)ccc1-2	10.5
COC(=O)c1ncn2c1CN(C)C(=O)c1sccc1-2	0.9
CCOC(=O)c1ncn2c1C1CCCN1C(=O)c1cc(Cl)ccc1-2 (stereo not drawn)	72
CCC(CC)OC(=O)c1ncn2c1CN(C)C(=O)c1cc(Cl)ccc1-2	26.9
CCOC(=O)c1ncn2c1[C@@H]1CCCN1C(=O)c1ccccc1-2	0.9
CN1Cc2c(C(=O)OC(C)(C)C)ncn2-c2ccc(I)cc2C1=O	7
CN1Cc2c(C(=O)OC(C)(C)C)ncn2-c2ccccc2C1=O	1.1
